# study_system: KRas (Homo sapiens, UniProt P01116, G12C)
# assay_info: KRas degradation in NCI-H2030 cells by Western blot, normalized to GAPDH (data of Table 14)
# Format: cell-based
# Design: host or cells: NCI-H2030
# test_settings: H2030 cells, 0.3 μM
property: Percent Degradation at Indicated Concentration (μM): 0.3

molecule: CCC(=O)N1CCN(c2nc(NCCC(=O)N(C)CCOCCOCCOCCOc3cc(-c4scnc4C)ccc3CNC(=O)[C@@H]3C[C@@H](O)CN3C(=O)[C@@H](c3cc(C)no3)C(C)C)nc3c(F)c(-c4cc(O)cc5ccccc45)c(Cl)cc23)CC1
test_result: C (C ≤ 35)
//
molecule: C=CC(=O)N1CCN(c2nc(NCCC(=O)N(C)CCOCCOCCNc3cccc4c3C(=O)N(C3CCC(=O)NC3=O)C4=O)nc3c(F)c(-c4cc(O)cc5ccccc45)c(Cl)cc23)CC1 (centres unmarked)
test_result: C (C ≤ 35)

----------
# Dmax per entry
# study_system: KRas (Homo sapiens, UniProt P01116, G12C)
# assay_info: KRas degradation in NCI-H2030 cells by Western blot, normalized to GAPDH (data of Table 14)
# Type: cell-based
# Parameters: host or cells: NCI-H2030
# test_settings: NCI-H2030

Some compounds with known Dmax results, for comparison:
compound: O=C1CCC(N2C(=O)c3ccc(OCCOCCOCCOCC/C=C/C(=O)N4CCN(c5ncnc6c(F)c(-c7cc(O)cc8ccccc78)c(Cl)cc56)CC4)cc3C2=O)C(=O)N1 (stereo not drawn)
study_system: KRas (Homo sapiens, UniProt P01116, G12C)
Dmax: ≤ 35%
//
compound: CN(CCOCCOc1ccc2c(c1)C(=O)N(C1CCC(=O)NC1=O)C2=O)C(=O)CCNc1nc(N2CCN(C(N)=O)CC2)c2cc(Cl)c(-c3cc(O)cc4ccccc34)c(F)c2n1 (stereo not drawn)
study_system: KRas (Homo sapiens, UniProt P01116, G12C)
Dmax: ≤ 35%

Kindly consider the entry below.
Would you mind telling me what Dmax value was observed for Cc1ncsc1-c1ccc([C@H](C)NC(=O)[C@@H]2C[C@@H](O)CN2C(=O)[C@@H](NC(=O)COCCN(C)C(=O)CCNc2nc(N3CCN(C(=O)C(O)O)CC3)c3cc(Cl)c(-c4c(O)cccc4F)c(F)c3n2)C(C)(C)C)cc1 (atropisomer, axis not shown) ?
≤ 35%

----------
# study_system: KRas (Homo sapiens, UniProt P01116, G12C)
# assay_info: KRas degradation in NCI-H2030 cells by Western blot, normalized to GAPDH (data of Table 14)
# Assay type: cell-based
# Design: host or cells: NCI-H2030
# test_settings: H2030 cells, 1 μM
property: Percent Degradation at Indicated Concentration (μM): 1

molecule: C=CC(=O)N1CCN(c2nc(NCCC(=O)N(C)CCOCCOCCNc3cccc4c3C(=O)N(C3CCC(=O)NC3=O)C4=O)nc3c(F)c(-c4cc(O)cc5ccccc45)c(Cl)cc23)CC1 (centres unmarked) [compound 57]
study_system: KRas (Homo sapiens, UniProt P01116, G12C)
test_result: C (C ≤ 35)

molecule: CCC(=O)N1CCN(c2nc(NCCC(=O)N(C)CCOCCOCC(=O)N[C@H](C(=O)N3C[C@H](O)C[C@H]3C(=O)N[C@@H](C)c3ccc(-c4scnc4C)cc3)C(C)(C)C)nc3c(F)c(-c4cc(O)cc5ccccc45)c(Cl)cc23)CC1 [compound 187]
study_system: KRas (Homo sapiens, UniProt P01116, G12C)
test_result: C (C ≤ 35)

Attribution: patent US12552783B2
